SYSTEM: GH (GH stock solution) (UniProt P01241)
Sequence (P01241 27-217 limits assumed): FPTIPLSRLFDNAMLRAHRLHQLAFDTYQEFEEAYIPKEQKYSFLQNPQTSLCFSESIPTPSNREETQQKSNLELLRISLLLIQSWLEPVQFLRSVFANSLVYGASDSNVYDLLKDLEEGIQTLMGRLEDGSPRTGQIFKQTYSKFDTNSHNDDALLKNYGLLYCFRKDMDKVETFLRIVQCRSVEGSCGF
ASSAY EXPLANATION: loss of dynamic binding capacity of the conjugated medium for GH after 0.5M NaOH 24h
Measured residual DBC (a decrease of DBC), listed per entry.

Below are worked cases with known answers.
binder="M74 (Second round) (VHH, Entry already carries A57D; G134R; R100eE); tail DDDDK-SGGRGS-HHHHHH) VHH: QVQLVESGGGLAQAGGSLRLSCAVSGMPEFARAMGWFRQAPGKERELLAAIEGIGDTTYYADSVKGRFTISRDDAANTVLLQMNSLKPDDTAVYYCAAAFSVTIPTRAEHWVDWGPGTLVTVSS" measure_name="residual DBC (a decrease of DBC)" result="< 49%"
binder="WT (with tag), unmodified GH single-domain antibody molecule (VHH) VHH: QVQLVESGGGLAQAGGSLRLSCAVSGMPEFARAMGWFRQAPGKERELLAAIEGIGATTYYADSVKGRFTISRDDAANTVLLQMNSLKPDDTAVYYCAAAFSVTIPTRARHWVDWGPGTLVTVSS" measure_name="residual DBC (a decrease of DBC)" result=85%
binder="M78 (Second round) (VHH, Entry already carries A57D; G134R; D102Y); tail DDDDK-SGGRGS-HHHHHH) VHH: QVQLVESGGGLAQAGGSLRLSCAVSGMPEFARAMGWFRQAPGKERELLAAIEGIGDTTYYADSVKGRFTISRDDAANTVLLQMNSLKPDDTAVYYCAAAFSVTIPTRARHWVYWGPGTLVTVSS" measure_name="residual DBC (a decrease of DBC)" result="< 49%"

Then this binder:
stdin: Can you look up the measured residual DBC (a decrease of DBC) of M20 (First round) (VHH) VHH: QVQLVESGGGLAQAGGSLRLSCAVSGMPEFARAMGWFRQAPGKERELVAAIEGIGATTYYADSVKGRFTISRDDAANTVLLQMNSLKPDDTAVYYCAAAFSVTIPTRARHWVDWGPGTLVTVSS for me?
stdout: < 49%
